I'd be grateful if you could share measured log Ks for these entries.
System: poly rA–poly rU (RNA, polymer) A/U
Experiment: fluorimetric titration, Scatchard
Settings: Na+ (sodium cacodylate, I = 0.05 M); pH 7.0; apparent; per phosphate; n fixed at 0.2; dye 1.3–1.5 × 10^-7 M; per base

A selection of reference data follows.
Compound: CC(O)C[n+]1c(C=C2C=CN(CCC[N+]3(C)CCC(CCCC4CC[N+](C)(CCCN5C=CC(=Cc6sc7ccccc7[n+]6CC(C)O)c6ccc(Cl)cc65)CC4)CC3)c3cc(Cl)ccc32)sc2ccccc21 (centres unmarked)
Assay system: poly rA–poly rU (RNA, polymer) A/U
log Ks: 6.14
--
Compound: CC(O)C[n+]1c(C=C2C=CN(CCC[N+](C)(C)CCC[N+](C)(C)CCCN3C=CC(=Cc4sc5ccccc5[n+]4CC(C)O)c4ccccc43)c3ccccc32)sc2ccccc21 (centres unmarked)
Assay system: poly rA–poly rU (RNA, polymer) A/U
log Ks: 7.15
--
Compound: CC(O)C[n+]1c(C=C2C=CN(CCC[N+]3(C)CCC(CCCC4CC[N+](C)(CCCN5C=CC(=Cc6sc7ccccc7[n+]6CC(C)O)c6ccccc65)CC4)CC3)c3ccccc32)sc2ccccc21 (centres unmarked)
Assay system: poly rA–poly rU (RNA, polymer) A/U
log Ks: 6.14

// batch mode: one log Ks value per listed entry
1. CC(O)C[n+]1c(C=C2C=CN(CCC[n+]3ccc(CCCc4cc[n+](CCCN5C=CC(=Cc6sc7ccccc7[n+]6CC(C)O)c6ccccc65)cc4)cc3)c3ccccc32)sc2ccccc21 (centres unmarked)
2. CC(O)C[n+]1c(C=C2C=CN(CCC[N+](C)(C)CCC[N+](C)(C)C)c3ccccc32)sc2ccccc21 (centres unmarked)

a:
1: 6.22; 2: 6.11

---

Test system: poly dG–poly dC (DNA, polymer) G/C
Assay: fluorimetric titration, Scatchard
Conditions: Na+ (sodium cacodylate, I = 0.05 M); pH 7.0; apparent; per phosphate; n fixed at 0.2; dye 1.3–1.5 × 10^-7 M; per base
Hi, to clarify the labels: Satisfied covers log Ks from 7 upward, Not satisfied covers anything below 7.

Compound: CC(O)C[n+]1c(C=C2C=CN(CCC[N+](C)(C)CCC[N+](C)(C)CCCN3C=CC(=Cc4sc5ccccc5[n+]4CC(C)O)c4ccccc43)c3ccccc32)sc2ccccc21 (centres unmarked)
Class name: Satisfied
--
Compound: CC(O)C[n+]1c(C=C2C=CN(CCC[N+]3(C)CCC(CCCC4CC[N+](C)(CCCN5C=CC(=Cc6sc7ccccc7[n+]6CC(C)O)c6ccc(Cl)cc65)CC4)CC3)c3cc(Cl)ccc32)sc2ccccc21 (centres unmarked)
Class name: Satisfied
--
Compound: CC(O)C[n+]1c(C=C2C=CN(CCC[N+]3(C)CCC(CCCC4CC[N+](C)(CCCN5C=CC(=Cc6sc7ccccc7[n+]6CC(C)O)c6ccccc65)CC4)CC3)c3ccccc32)sc2ccccc21 (centres unmarked)
Class name: Not satisfied

q: Decide: is the reported value of log Ks for CC(O)C[n+]1c(C=C2C=CN(CCC[n+]3ccc(CCCc4cc[n+](CCCN5C=CC(=Cc6sc7ccccc7[n+]6CC(C)O)c6ccccc65)cc4)cc3)c3ccccc32)sc2ccccc21 (centres unmarked) equal to or greater than 7?
a: Not satisfied

---

I'd be grateful if you could share measured log Ks for these entries.
Test system: poly dA–poly dT (DNA, polymer) A/T
Assay: fluorimetric titration, Scatchard
Conditions: Na+ (sodium cacodylate, I = 0.05 M); pH 7.0; apparent; per phosphate; n fixed at 0.2; dye 1.3–1.5 × 10^-7 M; per base
Give bare numbers.

A selection of reference data follows.
Compound: CC(O)C[n+]1c(C=C2C=CN(CCC[n+]3ccc(CCCc4cc[n+](CCCN5C=CC(=Cc6sc7ccccc7[n+]6CC(C)O)c6ccccc65)cc4)cc3)c3ccccc32)sc2ccccc21 (centres unmarked)
log Ks: 6.23

Compound: CC(O)C[n+]1c(C=C2C=CN(CCC[N+](C)(C)CCC[N+](C)(C)CCCN3C=CC(=Cc4sc5ccccc5[n+]4CC(C)O)c4ccccc43)c3ccccc32)sc2ccccc21 (centres unmarked)
log Ks: 6.19

Compound: CC(O)C[n+]1c(C=C2C=CN(CCC[N+]3(C)CCC(CCCC4CC[N+](C)(CCCN5C=CC(=Cc6sc7ccccc7[n+]6CC(C)O)c6ccc(Cl)cc65)CC4)CC3)c3cc(Cl)ccc32)sc2ccccc21 (centres unmarked)
log Ks: 5.91

Compound: CC(O)C[n+]1c(C=C2C=CN(CCC[N+]3(C)CCC(CCCC4CC[N+](C)(CCCN5C=CC(=Cc6sc7ccccc7[n+]6CC(C)O)c6ccccc65)CC4)CC3)c3ccccc32)sc2ccccc21 (centres unmarked)
log Ks: 5.89

Attention now turns to another entry.
q: Please indicate log Ks recorded for CC(O)C[n+]1c(C=C2C=CN(CCC[N+](C)(C)CCC[N+](C)(C)C)c3ccccc32)sc2ccccc21 (centres unmarked)
a: 6.41
